# protocol.details: Solubility in PBS
# Assay type: physicochemical
# Procedure: After ultracentrifugation of the PBS solution, the supernatant was analyzed by HPLC and compared to an HPLC injection 50 μM peptide DMSO solution. Solubility was determined by: [(Area of PBS peak)/(Area of DMSO peak)]*50 uM.
Measured Solubility by item
# output: bare number, implied unit µM

Example cases with answers are listed next.
CC(=O)N1CCC[C@]12CC=CCCCC1(CCCC=CCCCOC(=O)N3CC[C@@](C(=O)N[C@@H](Cc4ccsc4)C(=O)N[C@@H](Cc4csc5ccccc45)C(=O)N[C@@H](CCC(N)=O)C(N)=O)(C3)NC(=O)[C@H](CC(N)=O)NC(=O)[C@H](Cc3ccccc3)NC(=O)[C@H](C)NC(=O)[C@H](C)NC(=O)[C@H](CC(=O)O)NC(=O)[C@H](CC(=O)O)NC1=O)NC(=O)[C@H](CCC(C)C)NC(=O)[C@H](CC(=O)O)NC2=O (stereo partly shown) = 50
CC(=O)N1CCC[C@]12CC=CCCCC1(CCCC=CCCCOC(=O)N3CC[C@@](C(=O)N[C@@H](Cc4ccccc4Cl)C(=O)N[C@@H](Cc4csc5ccccc45)C(=O)N[C@@H](CCC(N)=O)C(N)=O)(C3)NC(=O)[C@H](Cc3cccc(C(F)(F)F)c3)NC(=O)[C@H](Cc3ccccc3)NC(=O)[C@H](C)NC(=O)[C@H](C)NC(=O)[C@H](CC(=O)O)NC(=O)[C@H](CC(=O)O)NC1=O)NC(=O)[C@H](CC(C)(C)C)NC(=O)[C@H](CC(=O)O)NC2=O (stereo partly shown) = 10
C[C@@H]1NC(=O)[C@H](C)NC(=O)[C@H](CN(CC(=O)O)CC(F)(F)F)NC(=O)[C@H](CC(=O)O)NC(=O)C2(CCCC=CCCCOC(=O)N3CC[C@@](C(=O)N[C@@H](Cc4ccsc4)C(=O)N[C@@H](Cc4csc5ccccc45)C(=O)N[C@@H](CCC(N)=O)C(N)=O)(C3)NC(=O)[C@H](CC(N)=O)NC(=O)[C@H](Cc3ccccc3)NC1=O)CCCC=CC[C@]1(CCCN1C(=O)CN=[N+]=[N-])C(=O)N[C@@H](CC(=O)O)C(=O)N[C@@H](CC(C)(C)C)C(=O)N2 (stereo partly shown) = 46
CC(=O)N1CCC[C@]12CC=CCCCC1(CCCC=CCCCOC(=O)N3CC[C@@](C(=O)N[C@@H](Cc4ccccc4)C(=O)N[C@@H](Cc4csc5ccccc45)C(=O)N[C@@H](CCC(N)=O)C(N)=O)(C3)NC(=O)[C@H](CC(C)C)NC(=O)[C@H](Cc3ccccc3)NC(=O)[C@H](C)NC(=O)[C@H](C)NC(=O)[C@H]([C@@H](C)O)NC(=O)[C@H](CC(=O)O)NC1=O)NC(=O)[C@H](C)NC(=O)[C@H](CC(N)=O)NC2=O (single isomer, unassigned) [I-1287] = 10
CC[C@H](C)[C@@H]1NC(=O)[C@H](CC(=O)O)NC(=O)[C@]2(CC=CCCCC3(CCCC=CCCCCCC[C@@](C)(C(=O)N[C@@H](Cc4ccccc4)C(=O)N[C@@H](Cc4csc5ccccc45)C(=O)N[C@@H](CCC(N)=O)C(N)=O)NC(=O)[C@H](CCC(N)=O)NC(=O)[C@H](Cc4ccccc4)NC(=O)[C@H](C)NC(=O)[C@H](CC(C)C)NC(=O)[C@H](CCC(=O)O)NC(=O)[C@H](CC(=O)O)NC3=O)NC1=O)CCCN2C(C)=O (stereo partly shown) [I-648] = 46

Moving on to another compound below.
**Query** For CC[C@H](C)[C@@H]1NC(=O)[C@H](CC(=O)O)NC(=O)[C@]2(CC=CCCCC3(CCCC=CCCCCCC[C@@](C)(C(=O)N[C@@H](Cc4ccccc4)C(=O)N[C@@H](Cc4csc5ccccc45)C(=O)N[C@@H](CCC(N)=O)C(N)=O)NC(=O)[C@H](CCC(N)=O)NC(=O)[C@H](Cc4ccccc4)NC(=O)[C@H](C)NC(=O)[C@H](C)NC(=O)[C@H](Cc4ccc(C(=O)O)cc4)NC(=O)[C@H](CC(=O)O)NC3=O)NC1=O)CCCN2C(C)=O (stereo partly shown) [I-607] , write its Solubility.
**Result** 48
